Ref: patent US7851637B2

system: Human Pancreatic Cancer Cell Line Panc1; experiment: Cell death assay (propidium iodide/Hoechst) in Panc1 cells with or without camptothecin; type: cell-based; conditions: with 3 uM Camptothecin, 72 hours, % cell death by propidium iodide/Hoechst, read-out: Panc1 + Cpt IC50
property: IC50

| compound | property | result |
| --- | --- | --- |
| COc1ccc(CN(CCN(C)C)Cc2cccc(CN3OC(CO)C(C(C)O)C3C(=O)NC3CC4CC(C3C)C4(C)C)c2)cc1 (stereo not drawn) | IC50 | > 2500 nM |
| CC(O)C1C(CO)ON(Cc2cccc(CNC(CN(C)C)c3ccccc3)c2)C1C(=O)NC1CC2CC(C1C)C2(C)C (stereo not drawn) | IC50 | > 2500 nM |
| C[C@@H]1[C@@H](NC(=O)[C@@H]2[C@H]([C@H](C)O)[C@H](CO)ON2Cc2cccc(N(CCc3ccccc3)CCN(C)C)c2)C[C@H]2C[C@@H]1C2(C)C | IC50 | 1800 to 2500 nM |
| CC(O)C1C(CO)ON(Cc2cccc(CN(CCN(C)C)Cc3ccc(F)cc3)c2)C1C(=O)NC1CC2CC(C1C)C2(C)C (stereo not drawn) | IC50 | 1300 to 1800 nM |
| C[C@@H]1[C@@H](NC(=O)[C@@H]2C([C@H](C)O)[C@H](CO)ON2Cc2cccc(CN(CCN(C)C)Cc3ccccc3Cl)c2)C[C@H]2C[C@@H]1C2(C)C (stereo partly drawn) | IC50 | > 2500 nM |

Entry CC(C)CC(CN(C)C)N(Cc1cccc(CN2OC(CO)C(C(C)O)C2C(=O)NC2CC3CC(C2C)C3(C)C)c1)Cc1ccccc1C(F)(F)F (stereo not drawn) ; IC50 = < 1300 nM

Per the record, CC(C)CC(CN(C)C)N(Cc1cccc(CN2OC(CO)C(C(C)O)C2C(=O)NC2CC3CC(C2C)C3(C)C)c1)Cc1c(F)cccc1C(F)(F)F (stereo not drawn) has IC50 of > 2500 nM

IC50 recorded for this compound, CCN1CCC[C@H]1CN(Cc1ccccc1)Cc1cccc(CN2O[C@@H](CO)C([C@H](C)O)[C@H]2C(=O)N[C@H]2C[C@H]3C[C@@H]([C@@H]2C)C3(C)C)c1 (stereo partly drawn) , is 1800 to 2500 nM

C[C@@H]1[C@@H](NC(=O)[C@@H]2C([C@H](C)O)[C@H](CO)ON2Cc2cccc(CN(CCN(C)C)Cc3ccncc3)c2)C[C@H]2C[C@@H]1C2(C)C (stereo partly drawn) has a reported IC50 of 1300 to 1800 nM

GET /value?item= COc1cccc(F)c1CN(Cc1cccc(CN2OC(CO)C(C(C)O)C2C(=O)NC2CC3CC(C2C)C3(C)C)c1)C(CC(C)C)CN(C)C (stereo not drawn) &field=IC50 returns < 1300 nM

Per the record, COc1c(CN2O[C@@H](CO)[C@@H]([C@H](C)O)[C@H]2C(=O)N[C@H]2C[C@H]3C[C@@H]([C@@H]2C)C3(C)C)cccc1-c1cccc(C(=O)N[C@H](CC2CCCCC2)CN(C)C)c1 has IC50 of 1800 to 2500 nM

IC50 measured on CC(O)C1C(CO)ON(Cc2cccc(C(=O)NC(CC3CCCCC3)CN(C)C)c2)C1C(=O)NC1CC2CC(C1C)C2(C)C (stereo not drawn) = 1300 to 1800 nM
